# Test Target: Polyadenylate-binding protein 1 (Homo sapiens)
# Experiment Summary: blockers of PABP interaction with poly(A) – biochemical, fluorescence polarization, uHTS, primary screen (AID 2014);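 note: calls also rest on retests at 20 µM and on dose response follow-up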
# Test Context: PABP-poly(A) RNA binding, at 35 µM, stronger effect = higher value
In all, about 290,000 compounds went through this assay and about 3,000 (1%) were called active. The sample as a whole holds a higher share of actives than the screen did.
# reported inhibition; entries follow
Quick reminder: number only, in %, skip the unit.

O=C(NC(=S)N1C[C@H]2C[C@H](C1)c1cccc(=O)n1C2)c1ccc(F)cc1
2.2
CN(C)CCCN=Cc1c(O)n(Cc2ccco2)c(=O)[nH]c1=O
3
COc1ccc(CN2C(=O)NC(=O)/C(=C\c3ccc(OC)c(OC)c3OC)C2=O)cc1
66.4
Cc1cc(/C=C2/C(=O)NC(=O)N(Cc3ccco3)C2=O)c(C)n1-c1ccc(C(=O)O)cc1
47.1

--- query ---
Quick note, inhibition for Cc1cccc(NC(=O)N2CC3CC(C2)c2cccc(=O)n2C3)c1 (stereo not given) landed at -0.3

###

# Test Target: Polyadenylate-binding protein 1 (Homo sapiens)
# Experiment Summary: blockers of PABP interaction with poly(A) – biochemical, fluorescence polarization, uHTS, primary screen (AID 2014);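 note: calls also rest on retests at 20 µM and on dose response follow-up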
# Test Context: PABP-poly(A) RNA binding, at 35 µM
Out of some 290,000 compounds screened, about 3,000 (1%) were called active. No rule for the calls is given here. The sample as a whole holds a higher share of actives than the screen did.
Form entry, call: pick from Y = active, N = inactive

Some entries whose results are on file:
CCN(CC)CCOC(=O)c1cc2cc(COC)ccc2o1
Y
CC1CCC(N(C)C2CCN(C)CC2)CC1 (centres undefined)
N
O=c1[nH]c(=O)n(Cc2ccccc2)c(O)c1/C=N/Nc1c(F)c(F)c(F)c(F)c1F
Y
Cc1c(Oc2cc(NN3CCCCC3)c([N+](=O)[O-])cc2[N+](=O)[O-])cccc1[N+](=O)[O-]
N
CCN(CC)C(=O)Oc1ccc(NC(=O)N2CCOCC2)cc1
N
CCCCC(=O)N/N=C/c1c(O)n(-c2ccccc2)c(=O)[nH]c1=O
N
CC(=O)c1c(O)n(C2CCCCCC2)c(=O)[nH]c1=O
Y
O=C(CN1CCCC1=O)NCCc1ccccc1
N

# ---- query compound ----
Challenge: Which outcome was assigned to COc1ccc(CNCCc2c[nH]c3ccccc23)cc1OC in this test?
Response given: N

###

# Test Target: Polyadenylate-binding protein 1 (Homo sapiens)
# Experiment Summary: blockers of PABP interaction with poly(A) – biochemical, fluorescence polarization, uHTS, primary screen (AID 2014);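 note: calls also rest on retests at 20 µM and on dose response follow-up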
# Test Context: PABP-poly(A) RNA binding, at 35 µM, stronger effect = higher value
Out of some 290,000 compounds screened, about 3,000 (1%) were called active. The sample holds actives, similar compounds and a random draw of the others, so the mix is not that of the screen.
Measurement Kind: inhibition (%)
Quick note: give the figure in %, leave out the unit.

O=c1c2ccccc2nc(-c2ccco2)n1-c1ccc(Br)cn1
5.1
O=C(N/N=C/c1c(O)n(C2CC2)c(=S)[nH]c1=O)c1ccccc1Cl
31
COc1ccccc1OC(=O)c1ccc(C)c(S(=O)(=O)N2CCOCC2)c1
-7

Entry COCCNC(=O)CN1C2CCC1CC(O)(c1cccnc1)C2 (stereo unspecified) ; inhibition = 14.6

For reference, reported inhibition for O=c1c2ccccc2nc(/C=C/c2ccco2)n1-c1ccccc1O stands at 43.7

The recorded inhibition for O=C1NC(=O)N(c2ccccc2)C(=O)/C1=C/c1ccc([N+](=O)[O-])s1 is 40.1
